// provenance: patent US20260356856A1

- targetSystem: KRas-mediated phosphorylation of ERK in H358 cells (Homo sapiens, UniProt P01116, G12C)
- Construct: pERK HTRF read-out
- Sequence (P01116 1-188 isoform P01116-2 G12C): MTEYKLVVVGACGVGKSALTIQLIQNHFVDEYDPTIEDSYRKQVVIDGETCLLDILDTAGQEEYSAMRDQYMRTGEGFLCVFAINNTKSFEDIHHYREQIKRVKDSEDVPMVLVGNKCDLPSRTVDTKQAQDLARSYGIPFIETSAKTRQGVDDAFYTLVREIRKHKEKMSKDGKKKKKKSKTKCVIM
- assayDetails: Inhibition of KRas-mediated phosphorylation of ERK (HTRF), H358 cells
- Assay type: cell-based
- conditionSet: HTRF pERK, 3 h incubation
readoutName: IC50 (nM)

Example results:
{"compound": "CC(=O)N(C)C(=O)[C@H]1CCCN(c2nc(OC[C@@]34CCCN3C[C@H](F)C4)nc3c(F)c(-c4ccc(F)c5sc(N)c(C#N)c45)c(Cl)cc23)CC1 (atropisomer, axis not shown; (aS)) [Example 256]", "IC50 (nM)": 8}
{"compound": "N#Cc1c(N)sc2c(F)ccc(-c3c(Cl)cc4c(N5CCN(S(=O)(=O)n6cncn6)CC5)nc(OC[C@@]56CCCN5C[C@H](F)C6)nc4c3F)c12 [Example 186]", "IC50 (nM)": 1120}
{"compound": "CC(=O)N(C)C(=O)C(C)CCN(C)c1nc(OC[C@@]23CCCN2C[C@H](F)C3)nc2c(F)c(-c3ccc(F)c4sc(N)c(C#N)c34)c(Cl)cc12 (stereo partly shown) [Example 304]", "IC50 (nM)": 3}
{"compound": "Cc1ccn(C(=O)C2CCN(c3nc(OC[C@@]45CCCN4C[C@H](F)C5)nc4c(F)c(-c5ccc(F)c6sc(N)c(C#N)c56)c(Cl)cc34)C2)n1 (stereo partly shown) [Example 139]", "IC50 (nM)": 412}

A: N#Cc1c(N)sc2c(F)ccc(-c3c(Cl)cc4c(N5CCC(C(=O)Oc6ccc(F)cc6)CC5)nc(OC[C@@]56CCCN5C[C@H](F)C6)nc4c3F)c12 [Example 299]
B: CCc1c(F)ccc2cc(O)cc(-c3ncc4c(N(CC)CCCC(=O)n5ccc(C)n5)nc(OC[C@@]56CCCN5C[C@H](F)C6)nc4c3F)c12 [Example 164]
C: CC(=O)N(C)C(=O)C1CCN(c2nc(OC[C@@]34CCCN3C[C@H](F)C4)nc3c(F)c(-c4ccc(F)c5sc(N)c(C#N)c45)c(Cl)cc23)CC1 [Example 254]
D: CCc1c(F)ccc2cc(O)cc(-c3ncc4c(N5CCC(C(=O)OC)CC5)nc(OC[C@@]56CCCN5C[C@H](F)C6)nc4c3F)c12 [Example 16]
E: CCc1c(F)ccc2cc(O)cc(-c3ncc4c(N5CCC(C(=O)N(C)C(=O)COC)CC5)nc(OC[C@@]56CCCN5C[C@H](F)C6)nc4c3F)c12 [Example 209]
INPUT: Order the records, beginning with the lowest IC50 and ending with the highest. # respond with the labels, arranged in the requested order
OUTPUT: A, C, D, B, E
